These data points were gathered from patent US11440932B2.

Test: Critical micelle concentration (CMC) by DPH fluorescence
Format: physicochemical
Settings: 50 mM tris-HCl, pH 8.0
Residues, ends and D or L forms follow the SMILES beside them. *: point of attachment. Myristoyl = CCCCCCCCCCCCCC(=O)*
Decide using CMC alone. Strictly below 1 mM: y. Equal to or above 1 mM: n.

Reference set (4 entries):
CCCCCCCCCCCCCCCC(=O)N[C@@H](CO)C(=O)N[C@H](CCC(=O)O)C(=O)O [Compound 2.3h] (HELM PEPTIDE1{[CCCCCCCCCCCCCCCC(=O)[*:2]].S.[dE]}$$$$V2.0) = y
CCCCCCCCCCCCCC(=O)NC(CC(=O)O)C(=O)NC(CCC(=O)O)C(=O)O (stereo not drawn) [Compound 4.5c] (Myristoyl-Asp-Glu-OH; configuration not given here) = n
CCCCCCCCCC(=O)N[C@@H](CO)C(=O)N[C@H](CCC(=O)O)C(=O)O [Compound 2.3d] (HELM PEPTIDE1{[CCCCCCCCCC(=O)[*:2]].S.[dE]}$$$$V2.0) = n
CCCCCCCCC(=O)N[C@@H](CO)C(=O)N[C@H](CCC(=O)O)C(=O)O [Compound 2.3c] (HELM PEPTIDE1{[CCCCCCCCC(=O)[*:2]].S.[dE]}$$$$V2.0) = n

Continue with the molecule presented below.
Dear colleague, could you confirm whether CMC of CCCCCCCCCCCCCC(=O)N[C@@H](COCc1cn(CCO[C@@H]2OC(CO)[C@@H](O[C@H]3OC(CO)[C@@H](O)C(O)C3O)C(O)C2O)nn1)C(=O)N[C@H](CCC(=O)O)C(=O)O (some centres unmarked) falls below 1 mM? Thanks. n
